target: OsWOX13 (Oryza sativa, UniProt Q5QMM3 1-267)
Sequence: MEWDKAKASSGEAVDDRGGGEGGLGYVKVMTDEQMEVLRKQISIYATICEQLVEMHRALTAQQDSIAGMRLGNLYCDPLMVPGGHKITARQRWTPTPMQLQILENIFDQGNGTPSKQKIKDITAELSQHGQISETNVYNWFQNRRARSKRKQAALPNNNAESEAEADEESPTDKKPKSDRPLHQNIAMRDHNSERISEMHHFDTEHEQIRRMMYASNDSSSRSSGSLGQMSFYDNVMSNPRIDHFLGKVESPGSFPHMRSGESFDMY
method.notes: protein-binding microarray (RPBM); PBS, 2% BSA, 51.3 ng/ul salmon testes DNA, 50 uM zinc acetate, 200 nM TF, 25 C, 1 h; high values mean tight binding
condition.parameters: protein: recombinant; tags: N-terminal polyhistidine and DsRed monomer fusion (pET32a); label: CyDye5-dUTP incorporated in the synthesized complementary strand; 3' TTTTT single-stranded linker to array surface; dsDNA, one strand shown
Whole data set: some 35,000 sequences, median “fluorescence intensity (a.u.)” near 10,000, cut for the highest 2% near 52,000. Only a selection was taken, and the highest values are over-represented in it overall.
Below, each entry is listed alongside its reported binding signal.

>  <residue.sequence>
TGGCCTTGATTTGCTTCCTGAATGTGCCTGCTTCCTTACACGGAGTCACCTAGTGCAG

>  <binding signal>
18100 fluorescence intensity (a.u.)

$$$$
>  <residue.sequence>
AAGATTGAAGGCAACCAAACCAACAAGGATGGATGCTTCTCGGAGTCACCTAGTGCAG

>  <binding signal>
16500 fluorescence intensity (a.u.)

$$$$
>  <residue.sequence>
GGGCTGTTTAGTTTTGGATTGATTGAGCAATGTAATATAACGGAGTCACCTAGTGCAG

>  <binding signal>
22200 fluorescence intensity (a.u.)

$$$$
>  <residue.sequence>
CCTCTTGATTGATTGCTCGGTCGACTGATTGCTTCTTACACGGAGTCACCTAGTGCAG

>  <binding signal>
65000 fluorescence intensity (a.u.)

$$$$
>  <residue.sequence>
ACCAAGTAATTGATATCTAGAAATCCGATACCTAGTACCACGGAGTCACCTAGTGCAG

>  <binding signal>
55000 fluorescence intensity (a.u.)

$$$$
>  <residue.sequence>
TCTTGACACCGGCCGGATTGATCTATCATCCATCCATCGACGGAGTCACCTAGTGCAG

>  <binding signal>
12300 fluorescence intensity (a.u.)

$$$$
>  <residue.sequence>
GAAGTTGATTATGAGCTCTTGGATCTTTTGGCAGGTGCAACGGAGTCACCTAGTGCAG

>  <binding signal>
19400 fluorescence intensity (a.u.)

$$$$
>  <residue.sequence>
ATGTGGCCGATAATTGCTTTGCATGCTGATGGATGTGGCTCGGAGTCACCTAGTGCAG

>  <binding signal>
4180 fluorescence intensity (a.u.)

$$$$
>  <residue.sequence>
CAATGGTAAATTTATCCAGTCCAAAGTGAAAATATATGGTCGGAGTCACCTAGTGCAG

>  <binding signal>
3960 fluorescence intensity (a.u.)

$$$$
>  <residue.sequence>
CCGACCCGTTGGATTGATAAAACCAACTGCTTCCCGCTCCCGGAGTCACCTAGTGCAG

>  <binding signal>
6190 fluorescence intensity (a.u.)

$$$$
>  <residue.sequence>
ATTGTTGCTGCTGCTGGATTGATTAGTGGTTAAGCAGATTCGGAGTCACCTAGTGCAG

>  <binding signal>
5320 fluorescence intensity (a.u.)

$$$$
>  <residue.sequence>
ACTGCTGCCGATTGACTGCTACGAGTAGCTCGCACCTGGCCGGAGTCACCTAGTGCAG

>  <binding signal>
7450 fluorescence intensity (a.u.)

$$$$
>  <residue.sequence>
TTTTGCAATGTGATTTGCTGGTTTGGATAGTGGAGAAGTTCGGAGTCACCTAGTGCAG

>  <binding signal>
3300 fluorescence intensity (a.u.)

$$$$
>  <residue.sequence>
TTTGCTAGATTGGAGCAAATCGCATATTCTTAACCCCACCCGGAGTCACCTAGTGCAG

>  <binding signal>
21600 fluorescence intensity (a.u.)

$$$$
>  <residue.sequence>
TATAACTAAAATTATATTTGTAAGTTTAGTTGATATGACACGGAGTCACCTAGTGCAG

>  <binding signal>
6390 fluorescence intensity (a.u.)

$$$$
>  <residue.sequence>
TTTGATTGAGATTGATAATAACCTGCTGTAACTTAGCGAACGGAGTCACCTAGTGCAG

>  <binding signal>
61100 fluorescence intensity (a.u.)

$$$$
>  <residue.sequence>
AGGAATCGGAATTGATTTCATGCACTGATCGATCCATCCACGGAGTCACCTAGTGCAG

>  <binding signal>
7970 fluorescence intensity (a.u.)

$$$$
>  <residue.sequence>
ATAAATAAACTTATTTTGAGATAATGGTGTAATAGTGTAGCGGAGTCACCTAGTGCAG

>  <binding signal>
5300 fluorescence intensity (a.u.)

$$$$
>  <residue.sequence>
GTAGATAGATGGCACATTGGCAGTGATGGCTGTGTACAGTCGGAGTCACCTAGTGCAG

>  <binding signal>
8260 fluorescence intensity (a.u.)

$$$$
>  <residue.sequence>
GGACAGATTAACTATCACTTAATTTCAGGTTTCCATGTATCGGAGTCACCTAGTGCAG

>  <binding signal>
22700 fluorescence intensity (a.u.)

$$$$
>  <residue.sequence>
TGAAATTATTAGCAGGGTTTTAAATCTTCTGTTATAGCTGCGGAGTCACCTAGTGCAG

>  <binding signal>
4040 fluorescence intensity (a.u.)

$$$$
>  <residue.sequence>
CTTGACAGGCACCGTGATACTTGGGTTCTTGATATAACTGCGGAGTCACCTAGTGCAG

>  <binding signal>
34400 fluorescence intensity (a.u.)

$$$$
>  <residue.sequence>
CACTTAACTGAACACTTACTTCTCGGTGACAAGTGAAATGCGGAGTCACCTAGTGCAG

>  <binding signal>
10800 fluorescence intensity (a.u.)

$$$$
>  <residue.sequence>
ATAATAATTAATATTTCATTAATTATATGCTAACGAGTTTCGGAGTCACCTAGTGCAG

>  <binding signal>
43400 fluorescence intensity (a.u.)

$$$$
>  <residue.sequence>
CTGATTGGTTAGTAAGAGAATGTTGGTGGTGAAGTTGTTACGGAGTCACCTAGTGCAG

>  <binding signal>
29900 fluorescence intensity (a.u.)

$$$$
>  <residue.sequence>
TAGATAGATAGATAGATATAGTTGGTGTGTTTGACCCTAGCGGAGTCACCTAGTGCAG

>  <binding signal>
36400 fluorescence intensity (a.u.)

$$$$
>  <residue.sequence>
CCAAGCAAATAATCCGATAGATTGAATCGGTGAGTTACCACGGAGTCACCTAGTGCAG

>  <binding signal>
9630 fluorescence intensity (a.u.)

$$$$
>  <residue.sequence>
AAATCAATCTGATGGGCCGAATTGGAGGCCCATATCCGTGCGGAGTCACCTAGTGCAG

>  <binding signal>
8660 fluorescence intensity (a.u.)

$$$$
>  <residue.sequence>
TATTTAATTGCAACGAATACAATAGTTTAATCGGATTATACGGAGTCACCTAGTGCAG

>  <binding signal>
9360 fluorescence intensity (a.u.)

$$$$
>  <residue.sequence>
GTGAATTTGATAGGGCGATAAGGATAATAAACAAGAACATCGGAGTCACCTAGTGCAG

>  <binding signal>
3540 fluorescence intensity (a.u.)

$$$$
>  <residue.sequence>
AATTAACATCAATAACAAAGTGTTGTACTGTAATCATCTTCGGAGTCACCTAGTGCAG

>  <binding signal>
4050 fluorescence intensity (a.u.)

$$$$
>  <residue.sequence>
TGTTATAATAGTGTAGATTGATCGATATAATTGTATATGACGGAGTCACCTAGTGCAG

>  <binding signal>
3170 fluorescence intensity (a.u.)

$$$$
>  <residue.sequence>
TAATATTATATTTAATTTGCATTATTTTAAATATAGTACCCGGAGTCACCTAGTGCAG

>  <binding signal>
3730 fluorescence intensity (a.u.)

$$$$
>  <residue.sequence>
TTGGTTGGTTGGTTGATTGCTCGCGCCCCGCGCGGTTGCGCGGAGTCACCTAGTGCAG

>  <binding signal>
6680 fluorescence intensity (a.u.)

$$$$
>  <residue.sequence>
ATTGATTGATAAACCCTACTGCTTCTCGCCGCCGCCGCCGCGGAGTCACCTAGTGCAG

>  <binding signal>
55100 fluorescence intensity (a.u.)

$$$$
>  <residue.sequence>
AGATCTGATTGATATTGATCCATCGCCGATCGATTGATCACGGAGTCACCTAGTGCAG

>  <binding signal>
53800 fluorescence intensity (a.u.)

$$$$
>  <residue.sequence>
ACATTAACAAACTCTATCTTAACATTTAGATGCAAGAGCCCGGAGTCACCTAGTGCAG

>  <binding signal>
3790 fluorescence intensity (a.u.)

$$$$
